Molecular target: T1, Recombinant GST-NEMO (NEMO(1-196)) (UniProt Q9Y6K9 1-196, biotinylated in the library screen)
T1 construct: range 1-196; Expressed in E. coli BL21(DE3); also called NF-κB essential modulator; IKKγ; not shown: glutathione S-transferase (GST) tag encoded by the pGEX4T3 vector
T1 sequence (Q9Y6K9 1-196): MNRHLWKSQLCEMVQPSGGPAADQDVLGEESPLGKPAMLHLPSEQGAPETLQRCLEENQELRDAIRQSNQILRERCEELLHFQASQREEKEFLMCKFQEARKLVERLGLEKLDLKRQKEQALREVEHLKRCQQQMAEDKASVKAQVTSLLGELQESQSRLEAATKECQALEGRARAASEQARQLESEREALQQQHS
Experiment: HTRF competition, GST-NEMO + biotin-IKKβKK/RR(701-745), peptide 0-100 µM
Square brackets hold non-standard residues; d marks the D form. Ends that are not written are not given here. 2Nal = N[C@@H](Cc1ccc2ccccc2c1)C(=O)O; Dap = NC[C@H](N)C(=O)O; βAla = NCCC(=O)O
Observation type: IC50
Quick note: number first, unit second.

Reference set (2 entries):
[ask] Given GWIAA[Dap]F[2Nal]R[dR]R[Dap][βAla][βAla]K (linker (positions not given here) via trimesic acid; not fully specified (bridges); printed as Tm(GWIAA)Δ(FΦRrRΔ)-BBK) [peptide 14] , state its recorded IC50.
[reply] 2800 nM

[ask] Report IC50 for GWIYA[Dap]F[2Nal]R[dA]R[Dap][βAla][βAla]K (linker (positions not given here) via trimesic acid; not fully specified (bridges); printed as Tm(GWIYA)Δ(FΦRaRΔ)-BBK) [peptide 18] please.
[reply] 2100 nM

New cases:
[ask] Which IC50 reading was recorded for the binder GAIAA[Dap]F[2Nal]R[dR]R[Dap][βAla][βAla]K (linker (positions not given here) via trimesic acid; not fully specified (bridges); printed as Tm(GAIAA)Δ(FΦRrRΔ)-BBK) [peptide 20] ?
[reply] 16000 nM
